Below, each of the compounds is paired with its reported TGI value.
- System: SK-OV-3 ovarian
- EXPERIMENT: NCI tumour cell line growth inhibition, 48 h

COMPOUND	TGI
CC/C=C\C/C=C\C/C=C\CCCCCCCC(=O)OC	> 100 µM
O=C(/C=C/c1ccc(O)c(O)c1)OCCCOC(=O)/C=C/c1ccc(O)c(O)c1	> 100 µM
O=C1C(=O)c2cc([N+](=O)[O-])ccc2-c2ccc([N+](=O)[O-])cc21	5.31 µM

Specify TGI for O=C(c1ccc(Cl)cc1)N(C(=S)OC12CC3CC(CC(C3)C1)C2)c1ccccc1 and stop. > 100 µM

Specify TGI for O=c1cc(-c2ccccc2)nc(-n2[nH]c3c(c2=O)CCCC3)[nH]1 and stop. > 100 µM

Specify TGI for CN(C)CCCNc1ccnc2cccc([N+](=O)[O-])c12 and stop. 22.9 µM
